Exercise: for every item that follows, state its recorded % Inhibition of PCSK9.
# Tested on: PCSK9 mRNA
# ASSAY_TEXT: Dose-dependent inhibition of PCSK9 in Hep3B cells with EC50 (Example 19, Table 76)
# Assay type: cell-based, human
# REPORTED_CONDITIONS: 20 nM
Strand notation (5' to 3'): a small letter for the sugar, then the base; units joined by * are phosphorothioate-linked, units joined directly phosphodiester-linked; [ ] holds rarer units or linkages, { } end groups; capitals alone tell only the bases. e = 2'-O-(2-methoxyethyl) (MOE); [5mC] = 5-methylcytosine; d = 2'-deoxy (DNA)
Give bare numbers, in %.

The examples below pair each entry with its known result.
SUBSTANCE	ENDPOINT	VALUE_UNIT	VAL
400330 (e[5mC]*e[5mC]*dA*d[5mC]*dG*dT*dG*dG*dG*d[5mC]*dA*dG*e[5mC]*eA; antisense) [compound 400330]	% Inhibition of PCSK9	%	40
400352 (antisense e[5mC]*eA*d[5mC]*d[5mC]*d[5mC]*dT*d[5mC]*dA*d[5mC]*d[5mC]*d[5mC]*d[5mC]*e[5mC]*eA) [compound 400352]	% Inhibition of PCSK9	%	40
400327 (eG*eT*d[5mC]*d[5mC]*d[5mC]*d[5mC]*dA*dA*dA*dG*dT*d[5mC]*e[5mC]*e[5mC]; antisense) [compound 400327]	% Inhibition of PCSK9	%	23
400307 (e[5mC]*eG*dG*d[5mC]*d[5mC]*dG*d[5mC]*dT*dG*dA*d[5mC]*d[5mC]*eA*e[5mC]; antisense) [compound 400307]	% Inhibition of PCSK9	%	45
400308 (e[5mC]*e[5mC]*dG*dG*d[5mC]*d[5mC]*dG*d[5mC]*dT*dG*dA*d[5mC]*e[5mC]*eA; antisense) [compound 400308]	% Inhibition of PCSK9	%	26

// for each substance in input: emit % Inhibition of PCSK9
1. 400353 (antisense eA*e[5mC]*dA*d[5mC]*d[5mC]*d[5mC]*dT*d[5mC]*dA*d[5mC]*d[5mC]*d[5mC]*e[5mC]*e[5mC]) [compound 400353]
2. 400331 (eG*e[5mC]*d[5mC]*dA*d[5mC]*dG*dT*dG*dG*dG*d[5mC]*dA*eG*e[5mC]; antisense) [compound 400331]
3. 400309 (e[5mC]*e[5mC]*d[5mC]*dG*dG*d[5mC]*d[5mC]*dG*d[5mC]*dT*dG*dA*e[5mC]*e[5mC]; antisense) [compound 400309]

Return:
1. 23
2. 47
3. 38
